- assayedSystem: T1, AAV9 (adeno-associated virus 9)
- T1 construct: also called adeno-associated virus serotype 9
- testSummary: SPR, AAV amine-coupled to CM5 chip;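 further: nanobodies flowed as analyte at seven concentrations spanning 1–100 nM over immobilized AAV (500–800 RU), kinetic constants derived by fitting the binding curves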
propertyName: kon (M⁻¹ s⁻¹)
Field: numeric (M⁻¹ s⁻¹). Do not append units.

binder: A4-098 (VHH) VHH: VQLQESGGGLVQPGGSLRLSCIASGSIFSINTMGWYRQAPGKQRELVATITRGGNTNYGDSVKGRFTISRDNAKNTVYLQMNTLRPEDTAVYYCHVDEIRESSWTTSNLWGQGTQVTVSS
propertyName: kon
readoutUnit: M⁻¹ s⁻¹
measurement: 7300

Now consider the entry below.
// query State the recorded kon for this entry: A4-074 (VHH) VHH: VQLQESGGGLVQSGGSLRLSCAASGSMFSLNTMGWYRQAPGKQRELVATITRGGGTSYADSVKGRFTISRDNAKNTVYLQMNSLRPEDTAVYYCHVDELRQSSWTTSNLWGQGTQVTVSS
// result 28200
